The values you see were collected from the Human Domainome abundance scans (Beltran et al. 2025).

B1: Formin-binding protein 4, residues 200 to 261; numbered along this chain, Q8N3X1 (parent)
chain: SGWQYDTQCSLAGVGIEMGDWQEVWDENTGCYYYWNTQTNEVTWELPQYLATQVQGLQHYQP

Variants of: B1
TEST: abundance fitness (aPCA) (normalised: wild type 0, dead -1); higher = more abundant; growth selection in yeast, the domain comes from the species named
RUN_PARAMETERS: Homo sapiens
abundance fitness vs -0.02: at or above is MET, below is NOT MET.

In plain terms: is recorded abundance fitness at least -0.02 for SGWQPDTQCSLAGVGIEMGDWQEVWDENTGCYYYWNTQTNEVTWELPQYLATQVQGLQHYQP ? NOT MET

In plain terms: is recorded abundance fitness at least -0.02 for SGWQYDTQCSLAGVGIEMGDWQEVWDENTGCYYYWNTQTNEVTWELMQYLATQVQGLQHYQP ? NOT MET

In plain terms: is recorded abundance fitness at least -0.02 for SNWQYDTQCSLAGVGIEMGDWQEVWDENTGCYYYWNTQTNEVTWELPQYLATQVQGLQHYQP ? MET

In plain terms: is recorded abundance fitness at least -0.02 for SGWQYDTQCSLAGVGIEMGDWNEVWDENTGCYYYWNTQTNEVTWELPQYLATQVQGLQHYQP ? NOT MET

In plain terms: is recorded abundance fitness at least -0.02 for SGQQYDTQCSLAGVGIEMGDWQEVWDENTGCYYYWNTQTNEVTWELPQYLATQVQGLQHYQP ? MET

In plain terms: is recorded abundance fitness at least -0.02 for SGWQYDTQCSLAGVGIEMGDWQEVWDENTGCYYCWNTQTNEVTWELPQYLATQVQGLQHYQP ? NOT MET

In plain terms: is recorded abundance fitness at least -0.02 for SGWQYTTQCSLAGVGIEMGDWQEVWDENTGCYYYWNTQTNEVTWELPQYLATQVQGLQHYQP ? NOT MET

In plain terms: is recorded abundance fitness at least -0.02 for SGWQYDTQCSLAGVGIEMGDWGEVWDENTGCYYYWNTQTNEVTWELPQYLATQVQGLQHYQP ? NOT MET

In plain terms: is recorded abundance fitness at least -0.02 for SGWQYDTQCSLAGVGIEMGDWQEVWDENTICYYYWNTQTNEVTWELPQYLATQVQGLQHYQP ? MET

In plain terms: is recorded abundance fitness at least -0.02 for SGWQYDTQCSLAGVGIEMGDWQEVWDENTGCYYYWNTQGNEVTWELPQYLATQVQGLQHYQP ? NOT MET

In plain terms: is recorded abundance fitness at least -0.02 for SGWQYDTQCSLAGVGIEMGDWQEVWDENTGCYYYWNTQTNEVTWETPQYLATQVQGLQHYQP ? NOT MET

In plain terms: is recorded abundance fitness at least -0.02 for SGWQYDTQCSLAGVGIEMGDWQEVWDWNTGCYYYWNTQTNEVTWELPQYLATQVQGLQHYQP ? NOT MET
